Target: human β-glucocerebrosidase (Homo sapiens)
Sequence (P04062 40-536): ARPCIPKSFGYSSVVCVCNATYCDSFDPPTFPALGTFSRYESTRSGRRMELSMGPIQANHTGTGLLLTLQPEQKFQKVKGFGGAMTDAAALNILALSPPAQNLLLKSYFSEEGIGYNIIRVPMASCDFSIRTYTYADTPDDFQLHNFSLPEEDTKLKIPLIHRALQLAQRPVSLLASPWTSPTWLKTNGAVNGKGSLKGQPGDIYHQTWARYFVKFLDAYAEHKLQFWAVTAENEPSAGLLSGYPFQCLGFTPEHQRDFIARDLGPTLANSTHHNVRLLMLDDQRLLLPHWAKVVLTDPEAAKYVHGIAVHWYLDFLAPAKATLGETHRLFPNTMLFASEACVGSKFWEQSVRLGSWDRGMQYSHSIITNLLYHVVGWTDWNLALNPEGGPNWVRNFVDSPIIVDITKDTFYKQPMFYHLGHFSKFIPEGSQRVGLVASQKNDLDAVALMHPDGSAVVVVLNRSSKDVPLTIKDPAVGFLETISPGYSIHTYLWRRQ
pIC50: −log10 of the molar value.
Endpoint: pIC50

(P) CCCCCCCCC[C@H]1NC[C@@H](O)[C@H](O)[C@H]1O
(Q) CCCCCCCCCCCC[C@H]1NC[C@@H](O)[C@H](O)[C@H]1O
Lookup: Record comparison, field pIC50: mark the lower of P and Q . Your choice should be expressed through its label.
Found: Q

====

Biological target: maltase
Test: Inhibition of rat intestinal maltase
Details: rat intestine; read-out: IC50 α-glucosidase maltase
Endpoint: IC50 (µM)
Form entry: value (µM) — number only.

Lookup: Please give the measured IC50 for this compound: CCCCCCCCCN1C[C@H](O)[C@@H](O)[C@H](O)[C@H]1CO [2′, N-nonyl-1-deoxynojirimycin, reference compound]
Found: 1.3

====

Target: rice α-glucosidase (Oryza sativa subsp. japonica, UniProt Q653V7)
Sequence (Q653V7 34-885): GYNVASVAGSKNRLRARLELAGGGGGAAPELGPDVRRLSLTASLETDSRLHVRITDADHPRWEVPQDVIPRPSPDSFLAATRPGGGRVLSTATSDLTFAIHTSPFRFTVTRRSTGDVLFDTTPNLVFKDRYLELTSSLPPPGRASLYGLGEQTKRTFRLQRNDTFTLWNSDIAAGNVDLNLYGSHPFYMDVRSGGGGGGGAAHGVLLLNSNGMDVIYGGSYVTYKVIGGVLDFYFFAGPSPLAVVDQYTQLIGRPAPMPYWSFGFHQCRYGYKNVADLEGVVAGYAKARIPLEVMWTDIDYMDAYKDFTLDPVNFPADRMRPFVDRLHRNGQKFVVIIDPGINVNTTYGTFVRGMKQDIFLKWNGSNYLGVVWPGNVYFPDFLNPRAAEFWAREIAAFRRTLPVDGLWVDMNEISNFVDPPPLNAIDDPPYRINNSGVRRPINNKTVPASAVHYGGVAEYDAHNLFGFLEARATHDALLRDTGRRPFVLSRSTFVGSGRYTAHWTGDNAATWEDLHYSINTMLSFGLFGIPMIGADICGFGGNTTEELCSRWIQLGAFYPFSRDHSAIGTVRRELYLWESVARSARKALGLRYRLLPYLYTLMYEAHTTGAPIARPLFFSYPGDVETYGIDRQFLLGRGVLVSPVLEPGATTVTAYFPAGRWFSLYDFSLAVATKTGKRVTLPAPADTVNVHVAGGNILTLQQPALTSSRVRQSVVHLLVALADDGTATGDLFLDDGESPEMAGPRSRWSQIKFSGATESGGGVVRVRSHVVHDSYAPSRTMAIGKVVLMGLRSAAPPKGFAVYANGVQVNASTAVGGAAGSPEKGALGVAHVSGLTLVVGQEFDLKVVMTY
Endpoint: IC50 (nM)
Form entry: value (nM) — number only.

Lookup: Param readout = IC50; param system = rice α-glucosidase (Oryza sativa subsp. japonica, UniProt Q653V7); param query = CCCCCCCCCN1C[C@H](O)[C@@H](O)[C@H](O)[C@H]1CO [2′, N-nonyl-1-deoxynojirimycin, reference compound] ; response: value
Found: 80

====

Target: β-glucosidase sweet almond
Assay: Inhibition of sweet almond β-glucosidase
Endpoint: pIC50
Note on units: pIC50 is unitless, being -log10 of a concentration expressed in mol/L.

# Compound, pIC50
measured = [
    ("CCCCCCCCC[C@H]1NC[C@@H](O)[C@H](O)[C@H]1O", 5.72),
]

For the next question, use this compound.
Lookup: Please give the measured pIC50 for this compound: CCCCCCCCCN1C[C@H](O)[C@@H](O)[C@H](O)[C@H]1CO [2′, N-nonyl-1-deoxynojirimycin, reference compound]
Found: 3.82

====

Target: human β-glucocerebrosidase (Homo sapiens)
Sequence (P04062 40-536): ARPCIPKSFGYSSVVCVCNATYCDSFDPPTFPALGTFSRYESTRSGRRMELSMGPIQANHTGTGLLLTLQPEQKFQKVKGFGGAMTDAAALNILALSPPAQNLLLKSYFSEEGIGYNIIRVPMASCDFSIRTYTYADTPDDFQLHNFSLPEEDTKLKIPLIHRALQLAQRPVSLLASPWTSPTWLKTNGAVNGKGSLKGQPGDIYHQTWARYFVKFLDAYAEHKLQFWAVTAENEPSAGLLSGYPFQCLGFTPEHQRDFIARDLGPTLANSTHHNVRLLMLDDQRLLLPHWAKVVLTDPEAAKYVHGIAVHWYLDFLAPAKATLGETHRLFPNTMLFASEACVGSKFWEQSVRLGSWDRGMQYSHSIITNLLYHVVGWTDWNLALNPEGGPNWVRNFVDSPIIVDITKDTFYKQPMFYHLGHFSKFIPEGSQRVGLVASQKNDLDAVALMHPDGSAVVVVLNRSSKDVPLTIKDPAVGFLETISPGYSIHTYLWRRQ
Test: Inhibition tests on human β-glucocerebrosidase
Assay type: biochemical
Conditions: human enzyme; Table 1; read-out: value of Ki β-glucocérébrosidase (in brackets)
Endpoint: pKi
Note on units: pKi is unitless, being -log10 of a concentration expressed in mol/L.

Lookup: Please give the measured pKi for this molecule: CCCCCCCCCCCC[C@H]1NC[C@@H](O)[C@H](O)[C@H]1O
Found: 7.51
